test: Pharmacokinetics and brain distribution after single iv dose; details: male, CD-1, mouse, in vivo, 5 mg/kg
Structures can show the parent of a compound that is named as a salt.
Provide the recorded concentration at 10 min for the entries that follow.
Don't forget the unit after the value.

IN: What measured concentration at 10 min goes with CC(=O)NCc1ccc(Oc2ccc(S(=O)(=O)CC3CS3)cc2)cc1 (stereo not drawn) ?
OUT: 14.1 µM

IN: What measured concentration at 10 min goes with NCc1ccc(Oc2ccc(S(=O)(=O)CC3CS3)cc2)cc1 (stereo not drawn) [Compound 5, HCl salt] ?
OUT: 2.39 µM

IN: What measured concentration at 10 min goes with N=C(N)Nc1ccc(Oc2ccc(S(=O)(=O)CC3CS3)cc2)cc1 (stereo not drawn) [Compound 7, HCl salt] ?
OUT: 3.92 µM

* * *

assay: Pharmacokinetics and brain distribution after single iv dose; details: 5 min after 5 mg/kg single iv, mice
Structures can show the parent of a compound that is named as a salt.
QUANTITY_NAME: Brain concentration (pmol/mg tissue)
Numeric only. Scale: pmol/mg tissue

IN: What measured Brain concentration goes with CC(=O)NCc1ccc(Oc2ccc(S(=O)(=O)CC3CS3)cc2)cc1 (stereo not shown) ?
OUT: 4.90

IN: What measured Brain concentration goes with NCc1nc(-c2ccc(Oc3ccc(S(=O)(=O)CC4CS4)cc3)cc2)no1 (stereo not shown) ?
OUT: 5.98

IN: What measured Brain concentration goes with NCc1ccc(Oc2ccc(S(=O)(=O)CC3CS3)cc2)cc1 (stereo not shown) [Compound 5, HCl salt] ?
OUT: 2.97

IN: What measured Brain concentration goes with N=C(N)Nc1ccc(Oc2ccc(S(=O)(=O)CC3CS3)cc2)cc1 (stereo not shown) [Compound 7, HCl salt] ?
OUT: 0.476

* * *

biological target: MMP-2 (Homo sapiens (Human), UniProt P08253); experiment: Enzyme inhibition studies, MMP-2; assay type: biochemical; settings: slow-binding; Ki calculated from koff/kon; read-out: Ki
Sequence (P08253 110-660): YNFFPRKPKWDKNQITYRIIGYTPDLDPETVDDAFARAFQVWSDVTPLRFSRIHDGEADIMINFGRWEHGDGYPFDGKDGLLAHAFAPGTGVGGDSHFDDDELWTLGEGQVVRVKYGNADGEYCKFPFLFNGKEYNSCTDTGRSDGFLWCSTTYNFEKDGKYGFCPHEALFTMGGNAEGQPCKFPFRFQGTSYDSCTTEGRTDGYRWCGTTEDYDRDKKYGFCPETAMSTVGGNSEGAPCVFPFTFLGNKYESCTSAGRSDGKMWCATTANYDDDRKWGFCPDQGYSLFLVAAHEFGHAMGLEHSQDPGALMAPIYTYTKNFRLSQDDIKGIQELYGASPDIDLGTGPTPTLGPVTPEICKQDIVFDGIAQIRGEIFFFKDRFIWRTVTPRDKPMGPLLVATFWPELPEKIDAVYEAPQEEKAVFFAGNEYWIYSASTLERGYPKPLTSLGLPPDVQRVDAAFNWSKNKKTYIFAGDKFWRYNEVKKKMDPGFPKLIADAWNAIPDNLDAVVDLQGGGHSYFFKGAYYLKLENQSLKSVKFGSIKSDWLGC
QUANTITY_NAME: pKi
Interpret pKi as the negative base-10 log of the concentration measured in mol/L.

IN: What value of pKi on MMP-2 (Homo sapiens (Human), UniProt P08253) does NCc1nc(-c2ccc(Oc3ccc(S(=O)(=O)CC4CS4)cc3)cc2)no1 (stereo not shown) have?
OUT: 6.20

* * *

assay: Pharmacokinetics and brain distribution after single iv dose; details: male, CD-1, mouse, in vivo, 5 mg/kg
Structures can show the parent of a compound that is named as a salt.
QUANTITY_NAME: concentration at 120 min (nM)
Numeric only. Scale: nM

IN: What measured concentration at 120 min goes with CC(=O)NCc1ccc(Oc2ccc(S(=O)(=O)CC3CS3)cc2)cc1 (stereo not drawn) ?
OUT: 29.7

IN: What measured concentration at 120 min goes with N=C(N)Nc1ccc(Oc2ccc(S(=O)(=O)CC3CS3)cc2)cc1 (stereo not drawn) [Compound 7, HCl salt] ?
OUT: 6.3

IN: What measured concentration at 120 min goes with NCc1ccc(Oc2ccc(S(=O)(=O)CC3CS3)cc2)cc1 (stereo not drawn) [Compound 5, HCl salt] ?
OUT: 21.8

* * *

test: Pharmacokinetics and brain distribution after single iv dose; details: 90 min after 5 mg/kg single iv, mice
Structures can show the parent of a compound that is named as a salt.
Provide the recorded Brain concentration for the entries that follow.
Don't forget the unit after the value.

IN: What measured Brain concentration goes with NCc1ccc(Oc2ccc(S(=O)(=O)CC3CS3)cc2)cc1 (stereo not shown) [Compound 5, HCl salt] ?
OUT: 0.0213 ± 0.0106 pmol/mg tissue

IN: What measured Brain concentration goes with CC(=O)NCc1ccc(Oc2ccc(S(=O)(=O)CC3CS3)cc2)cc1 (stereo not shown) ?
OUT: 0.0263 ± 0.0228 pmol/mg tissue

IN: What measured Brain concentration goes with N=C(N)Nc1ccc(Oc2ccc(S(=O)(=O)CC3CS3)cc2)cc1 (stereo not shown) [Compound 7, HCl salt] ?
OUT: 0.0409 ± 0.0155 pmol/mg tissue

IN: What measured Brain concentration goes with NCc1nc(-c2ccc(Oc3ccc(S(=O)(=O)CC4CS4)cc3)cc2)no1 (stereo not shown) ?
OUT: 0.00548 ± 0.00476 pmol/mg tissue

* * *

biological target: MMP-14 (Homo sapiens (Human), UniProt P50281); assay: Enzyme inhibition studies, MMP-14 catalytic domain; type: biochemical; conditions: catalytic domain; slow-binding; Ki from koff/kon
Structures can show the parent of a compound that is named as a salt.
QUANTITY_NAME: Ki (nM)
Numeric only. Scale: nM

IN: What measured Ki goes with NCc1ccc(Oc2ccc(S(=O)(=O)CC3CS3)cc2)cc1 (stereo not shown) [Compound 5, HCl salt] ?
OUT: 120

* * *

experiment: Water solubility (filtrate of saturated aqueous solution, UPLC-MRM); details: thermodynamic from solid
Where a name gives a salt, the structure may show the parent alone.
QUANTITY_NAME: solubility (mg/mL)
Numeric only. Scale: mg/mL

IN: What measured solubility goes with N=C(N)Nc1ccc(Oc2ccc(S(=O)(=O)CC3CS3)cc2)cc1 (centres unmarked) [Compound 7, HCl salt] ?
OUT: 32

IN: What measured solubility goes with NCc1ccc(Oc2ccc(S(=O)(=O)CC3CS3)cc2)cc1 (centres unmarked) [Compound 5, HCl salt] ?
OUT: 4.9

* * *

experiment: Pharmacokinetics and brain distribution after single iv dose; settings: male, CD-1, mouse, in vivo, iv, 5 mg/kg
Where a name gives a salt, the structure may show the parent alone.
Provide the recorded clearance for the entries that follow.
Numeric only. Scale: L/h/kg

IN: What measured clearance goes with N=C(N)Nc1ccc(Oc2ccc(S(=O)(=O)CC3CS3)cc2)cc1 (centres unmarked) [Compound 7, HCl salt] ?
OUT: 6.42

IN: What measured clearance goes with NCc1ccc(Oc2ccc(S(=O)(=O)CC3CS3)cc2)cc1 (centres unmarked) [Compound 5, HCl salt] ?
OUT: 12.1

Cited source for all entries: patent US9951035B2
